Origin of values: PubChem BioAssay (NCI)

# Tested on: NCI-H460 lung
# TEST PROTOCOL: NCI-60 one-dose screen, 48 h (100 = growth as untreated, 0 = no growth, -100 = all killed)
# REPORTED CONDITIONS: 10 µM
The panel holds about 83,000 compounds, 20% with a hit somewhere; the sample as a whole holds those more often.

- MOLECULE: "N#Cc1c(C#N)c(SSc2c(C#N)c(C#N)c(N)n2-c2ccccc2)n(-c2ccccc2)c1N"
  growth [%]: 120
- MOLECULE: "Clc1ccc(/C=C2\\CCCC3=C2N=C2SC=NN2C3c2ccc(Cl)cc2)cc1 (centres undefined)"
  growth [%]: 97.2
- MOLECULE: "Cc1cc(N(CCCNc2ccnc3cc(Cl)ccc23)Cc2cccs2)nc(Cl)n1"
  growth [%]: 35.3
- MOLECULE: "COc1cc(Cl)cc(-c2nn(-c3cccc(NC(=O)c4ccc(N5CCOCC5)c(C(F)(F)F)c4)c3)cc2-c2ccncc2)c1"
  growth [%]: 29.3
